Target: ACE from rabbit lung (Oryctolagus cuniculus)
Sequence (P12822 34-1310): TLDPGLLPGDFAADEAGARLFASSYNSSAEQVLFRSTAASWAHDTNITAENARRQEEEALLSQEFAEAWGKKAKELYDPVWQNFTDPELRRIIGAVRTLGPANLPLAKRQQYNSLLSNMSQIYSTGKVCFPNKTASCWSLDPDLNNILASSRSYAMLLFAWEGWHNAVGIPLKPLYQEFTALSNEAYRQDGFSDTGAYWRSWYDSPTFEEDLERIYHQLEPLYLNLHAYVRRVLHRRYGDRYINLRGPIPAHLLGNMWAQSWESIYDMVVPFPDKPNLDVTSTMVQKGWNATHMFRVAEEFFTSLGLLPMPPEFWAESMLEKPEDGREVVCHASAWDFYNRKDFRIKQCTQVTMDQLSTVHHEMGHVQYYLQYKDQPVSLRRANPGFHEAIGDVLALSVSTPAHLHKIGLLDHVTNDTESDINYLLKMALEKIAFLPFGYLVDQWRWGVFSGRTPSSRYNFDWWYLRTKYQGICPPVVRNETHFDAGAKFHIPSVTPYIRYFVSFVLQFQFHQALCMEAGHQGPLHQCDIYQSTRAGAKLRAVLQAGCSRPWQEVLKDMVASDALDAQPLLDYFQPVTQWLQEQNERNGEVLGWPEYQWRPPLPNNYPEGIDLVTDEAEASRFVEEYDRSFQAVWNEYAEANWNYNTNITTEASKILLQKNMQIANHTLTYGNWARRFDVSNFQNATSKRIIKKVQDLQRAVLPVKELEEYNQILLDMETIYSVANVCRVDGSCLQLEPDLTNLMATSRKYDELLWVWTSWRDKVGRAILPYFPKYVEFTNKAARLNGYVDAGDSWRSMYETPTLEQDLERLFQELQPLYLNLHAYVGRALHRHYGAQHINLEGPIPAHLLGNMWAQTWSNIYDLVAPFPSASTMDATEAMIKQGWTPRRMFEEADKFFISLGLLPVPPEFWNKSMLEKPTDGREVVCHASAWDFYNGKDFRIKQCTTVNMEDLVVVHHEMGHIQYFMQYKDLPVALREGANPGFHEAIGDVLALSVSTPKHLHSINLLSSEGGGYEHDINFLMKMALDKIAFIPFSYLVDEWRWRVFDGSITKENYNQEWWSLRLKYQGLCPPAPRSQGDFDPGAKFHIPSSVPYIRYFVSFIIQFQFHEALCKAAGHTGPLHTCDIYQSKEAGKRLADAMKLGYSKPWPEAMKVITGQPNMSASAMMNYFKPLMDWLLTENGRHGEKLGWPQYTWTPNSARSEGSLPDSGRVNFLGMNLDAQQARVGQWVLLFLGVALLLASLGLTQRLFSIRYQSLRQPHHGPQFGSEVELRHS
Peptide text beside a SMILES is read from it.
Reported Metric: pIC50
Hey, just a heads up that pIC50 is the negative log base 10 of the concentration in molar.

INPUT: Give pIC50 for N[C@@H](Cc1ccc(O)cc1)C(=O)N1CCC[C@H]1C(=O)N[C@@H](CO)C(=O)N[C@@H](Cc1ccc(O)cc1)C(=O)O [YPSY] (H-YPSY-OH; N-terminus and C-terminus assumed)
OUTPUT: 3.94
